Please go through the items and note down their inhibition at 1 µM.
target: PEAK1 (Homo sapiens, UniProt Q9H792); assay: Tyrosine kinase inhibition assay; type: biochemical; conditions: single concentration 1.0 μM, read-out: percent inhibition
Sequence (Q9H792 whole entry): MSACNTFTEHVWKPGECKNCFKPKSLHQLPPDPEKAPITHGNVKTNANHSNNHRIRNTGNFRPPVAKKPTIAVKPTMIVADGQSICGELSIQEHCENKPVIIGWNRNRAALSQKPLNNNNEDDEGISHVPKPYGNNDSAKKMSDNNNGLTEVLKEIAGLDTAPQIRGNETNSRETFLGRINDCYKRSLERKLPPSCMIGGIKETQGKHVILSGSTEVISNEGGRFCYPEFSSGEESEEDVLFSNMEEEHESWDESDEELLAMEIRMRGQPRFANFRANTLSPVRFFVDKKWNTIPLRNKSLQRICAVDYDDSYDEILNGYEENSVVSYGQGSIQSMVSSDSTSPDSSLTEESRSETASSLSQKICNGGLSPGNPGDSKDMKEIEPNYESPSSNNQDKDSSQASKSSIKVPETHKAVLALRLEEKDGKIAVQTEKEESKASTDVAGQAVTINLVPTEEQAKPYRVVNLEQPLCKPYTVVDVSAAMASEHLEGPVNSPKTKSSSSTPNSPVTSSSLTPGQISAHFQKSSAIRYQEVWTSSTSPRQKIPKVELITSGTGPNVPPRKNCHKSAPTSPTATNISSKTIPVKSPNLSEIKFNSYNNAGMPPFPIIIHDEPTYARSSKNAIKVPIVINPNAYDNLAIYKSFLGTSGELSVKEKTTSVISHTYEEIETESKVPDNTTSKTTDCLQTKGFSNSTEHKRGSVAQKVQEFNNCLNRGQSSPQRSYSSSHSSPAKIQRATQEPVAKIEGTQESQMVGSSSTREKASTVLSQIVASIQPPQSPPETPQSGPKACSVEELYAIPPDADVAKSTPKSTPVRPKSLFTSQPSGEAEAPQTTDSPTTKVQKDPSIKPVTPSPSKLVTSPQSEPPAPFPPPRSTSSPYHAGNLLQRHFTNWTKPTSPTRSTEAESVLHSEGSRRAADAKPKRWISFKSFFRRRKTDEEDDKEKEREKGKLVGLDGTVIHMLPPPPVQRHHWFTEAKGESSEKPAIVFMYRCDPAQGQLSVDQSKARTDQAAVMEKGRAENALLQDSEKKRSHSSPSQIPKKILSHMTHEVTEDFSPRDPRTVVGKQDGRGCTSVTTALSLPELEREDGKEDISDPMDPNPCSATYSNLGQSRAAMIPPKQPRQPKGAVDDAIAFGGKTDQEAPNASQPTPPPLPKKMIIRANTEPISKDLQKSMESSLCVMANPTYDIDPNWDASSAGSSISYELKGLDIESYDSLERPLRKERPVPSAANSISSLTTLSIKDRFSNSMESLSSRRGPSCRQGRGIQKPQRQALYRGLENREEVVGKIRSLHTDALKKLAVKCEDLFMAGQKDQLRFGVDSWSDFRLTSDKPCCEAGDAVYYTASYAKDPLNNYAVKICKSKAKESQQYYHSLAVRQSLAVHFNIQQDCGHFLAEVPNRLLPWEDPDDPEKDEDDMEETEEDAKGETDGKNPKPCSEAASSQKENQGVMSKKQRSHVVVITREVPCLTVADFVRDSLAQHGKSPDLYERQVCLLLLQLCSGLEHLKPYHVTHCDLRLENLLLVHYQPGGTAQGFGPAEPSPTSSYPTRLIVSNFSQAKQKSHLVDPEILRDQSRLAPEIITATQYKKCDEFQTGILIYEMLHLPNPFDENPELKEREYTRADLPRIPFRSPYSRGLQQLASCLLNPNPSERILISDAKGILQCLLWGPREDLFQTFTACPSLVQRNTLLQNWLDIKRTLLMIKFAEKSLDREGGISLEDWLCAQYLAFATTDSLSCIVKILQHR
Number in %, nothing else.

**Query** If you can, please state the reported inhibition at 1 µM value of COc1cc2nccc(Oc3ccc(NC(=O)C4(NC(=O)c5ccc(F)cc5)CC4)cc3F)c2cc1OC [Cbo-02] .
**Result** 38

**Query** Which inhibition at 1 µM reading was recorded for the compound COc1cc2nccc(Oc3ccc(NC(=O)C4(NC(=O)c5ccc(F)cc5)CC4)cc3F)c2cc1Oc1c(F)cc(N)cc1F [Cbo-14] ?
**Result** 64

**Query** Quick one: inhibition at 1 µM of COc1cc2nccc(Oc3ccc(NC(=O)C4(NC(=O)c5ccc(F)cc5)CC4)cc3F)c2cc1Oc1ccc(N)cc1F [Cbo-10] ?
**Result** 55

**Query** Which inhibition at 1 µM is reported for this compound? COc1cc2nccc(Oc3ccc(NC(=O)C4(C(=O)Nc5ccc(F)cc5)CC4)cc3)c2cc1OC [Cabozantinib, reference compound]
**Result** 85

====

Molecular target: FLT3 (Homo sapiens)
Sequence (P36888 27-993): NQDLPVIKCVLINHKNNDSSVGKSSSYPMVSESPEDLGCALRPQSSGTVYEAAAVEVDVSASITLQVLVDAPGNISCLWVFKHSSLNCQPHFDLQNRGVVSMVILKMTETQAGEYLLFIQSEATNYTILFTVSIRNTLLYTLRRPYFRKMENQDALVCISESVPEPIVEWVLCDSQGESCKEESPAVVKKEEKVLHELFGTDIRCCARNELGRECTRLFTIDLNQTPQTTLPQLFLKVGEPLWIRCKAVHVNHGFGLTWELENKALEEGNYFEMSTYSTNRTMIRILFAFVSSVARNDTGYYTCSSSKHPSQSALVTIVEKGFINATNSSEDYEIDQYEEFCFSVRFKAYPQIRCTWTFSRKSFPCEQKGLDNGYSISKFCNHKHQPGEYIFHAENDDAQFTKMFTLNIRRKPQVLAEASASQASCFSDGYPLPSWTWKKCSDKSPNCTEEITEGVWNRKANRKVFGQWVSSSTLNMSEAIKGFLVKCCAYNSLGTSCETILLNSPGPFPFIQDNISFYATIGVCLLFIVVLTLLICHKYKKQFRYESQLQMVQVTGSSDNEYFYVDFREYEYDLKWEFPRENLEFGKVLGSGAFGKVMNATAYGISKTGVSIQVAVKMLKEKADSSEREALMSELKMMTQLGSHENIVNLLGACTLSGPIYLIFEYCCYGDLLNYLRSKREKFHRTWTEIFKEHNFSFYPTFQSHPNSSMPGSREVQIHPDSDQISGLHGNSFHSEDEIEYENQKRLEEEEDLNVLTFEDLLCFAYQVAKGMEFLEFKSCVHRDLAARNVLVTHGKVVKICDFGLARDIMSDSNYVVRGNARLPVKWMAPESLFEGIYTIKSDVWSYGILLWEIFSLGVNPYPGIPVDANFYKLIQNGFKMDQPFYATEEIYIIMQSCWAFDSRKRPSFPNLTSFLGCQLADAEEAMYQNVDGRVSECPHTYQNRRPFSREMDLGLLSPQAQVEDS
Test: Tyrosine kinase inhibition assay
Type: biochemical
Settings: single concentration 1.0 μM, read-out: percent inhibition
Assignment: determine reported inhibition at 1 µM for the given molecules.
Write down the value, and be sure its unit follows.

**Query** GET /values?readout=inhibition at 1 µM&item= "COc1cc2nccc(Oc3ccc(NC(=O)C4(NC(=O)c5ccc(F)cc5)CC4)cc3F)c2cc1OC"
**Result** 56%

**Query** Any idea what its inhibition at 1 µM is? The molecule is "COc1cc2nccc(Oc3ccc(NC(=O)C4(C(=O)Nc5ccc(F)cc5)CC4)cc3F)c2cc1Oc1ccc(N)cc1F"
**Result** 99%

**Query** What inhibition at 1 µM value was documented for this molecule, "COc1cc2nccc(Oc3ccc(NC(=O)C4(NC(=O)c5ccc(F)cc5)CC4)cc3F)c2cc1Oc1ccc(N)cc1F" ?
**Result** 70%

**Query** Query: inhibition at 1 µM; subject: COc1cc2nccc(Oc3ccc(NC(=O)C4(C(=O)Nc5ccc(F)cc5)CC4)cc3)c2cc1OC [Cabozantinib, reference compound]
**Result** 90%

**Query** Quick one: inhibition at 1 µM of "COc1cc2nccc(Oc3ccc(NC(=O)C4(NC(=O)c5ccc(F)cc5)CC4)cc3F)c2cc1Oc1c(F)cc(N)cc1F" ?
**Result** 81%

====

target: MAPK10 (JNK3) (Homo sapiens); experiment: Tyrosine kinase inhibition assay; assay type: biochemical; settings: single concentration 1.0 μM, read-out: percent inhibition
Sequence (P53779 whole entry): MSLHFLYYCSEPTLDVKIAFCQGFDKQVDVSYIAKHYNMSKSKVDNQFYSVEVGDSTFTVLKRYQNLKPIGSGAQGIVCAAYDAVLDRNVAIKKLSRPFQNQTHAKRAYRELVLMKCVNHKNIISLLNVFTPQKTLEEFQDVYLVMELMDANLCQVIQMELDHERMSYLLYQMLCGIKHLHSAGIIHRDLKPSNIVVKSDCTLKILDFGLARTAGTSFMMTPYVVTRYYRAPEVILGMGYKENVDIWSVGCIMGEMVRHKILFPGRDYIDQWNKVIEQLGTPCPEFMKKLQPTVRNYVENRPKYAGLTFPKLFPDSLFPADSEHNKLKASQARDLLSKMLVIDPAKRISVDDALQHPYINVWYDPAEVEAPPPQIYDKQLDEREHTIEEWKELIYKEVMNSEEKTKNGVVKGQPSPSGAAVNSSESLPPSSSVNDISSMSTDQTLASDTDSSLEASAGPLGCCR
READOUT TYPE: inhibition at 1 µM (%)
Report as a plain number; the unit % is understood.

**Query** Which inhibition at 1 µM value belongs to "COc1cc2nccc(Oc3ccc(NC(=O)C4(NC(=O)c5ccc(F)cc5)CC4)cc3F)c2cc1Oc1ccc(N)cc1F" ?
**Result** 8

**Query** I have this compound here, "COc1cc2nccc(Oc3ccc(NC(=O)C4(NC(=O)c5ccc(F)cc5)CC4)cc3F)c2cc1OC" , and I need its recorded inhibition at 1 µM.
**Result** 4

**Query** inhibition at 1 µM lookup needed for "COc1cc2nccc(Oc3ccc(NC(=O)C4(NC(=O)c5ccc(F)cc5)CC4)cc3F)c2cc1Oc1c(F)cc(N)cc1F" , thanks.
**Result** 4

**Query** Quick check: inhibition at 1 µM of "COc1cc2nccc(Oc3ccc(NC(=O)C4(C(=O)Nc5ccc(F)cc5)CC4)cc3F)c2cc1Oc1ccc(N)cc1F" ?
**Result** -3

**Query** Can you share its inhibition at 1 µM? I mean this compound: COc1cc2nccc(Oc3ccc(NC(=O)C4(C(=O)Nc5ccc(F)cc5)CC4)cc3)c2cc1OC [Cabozantinib, reference compound]
**Result** 3

====

Give inhibition at 1 µM for every item shown.
target: BRAF V599E (Homo sapiens, UniProt P15056, V600E); test: Tyrosine kinase inhibition assay; type: biochemical; conditions: single concentration 1.0 μM, read-out: percent inhibition
Sequence (P15056 whole entry V600E): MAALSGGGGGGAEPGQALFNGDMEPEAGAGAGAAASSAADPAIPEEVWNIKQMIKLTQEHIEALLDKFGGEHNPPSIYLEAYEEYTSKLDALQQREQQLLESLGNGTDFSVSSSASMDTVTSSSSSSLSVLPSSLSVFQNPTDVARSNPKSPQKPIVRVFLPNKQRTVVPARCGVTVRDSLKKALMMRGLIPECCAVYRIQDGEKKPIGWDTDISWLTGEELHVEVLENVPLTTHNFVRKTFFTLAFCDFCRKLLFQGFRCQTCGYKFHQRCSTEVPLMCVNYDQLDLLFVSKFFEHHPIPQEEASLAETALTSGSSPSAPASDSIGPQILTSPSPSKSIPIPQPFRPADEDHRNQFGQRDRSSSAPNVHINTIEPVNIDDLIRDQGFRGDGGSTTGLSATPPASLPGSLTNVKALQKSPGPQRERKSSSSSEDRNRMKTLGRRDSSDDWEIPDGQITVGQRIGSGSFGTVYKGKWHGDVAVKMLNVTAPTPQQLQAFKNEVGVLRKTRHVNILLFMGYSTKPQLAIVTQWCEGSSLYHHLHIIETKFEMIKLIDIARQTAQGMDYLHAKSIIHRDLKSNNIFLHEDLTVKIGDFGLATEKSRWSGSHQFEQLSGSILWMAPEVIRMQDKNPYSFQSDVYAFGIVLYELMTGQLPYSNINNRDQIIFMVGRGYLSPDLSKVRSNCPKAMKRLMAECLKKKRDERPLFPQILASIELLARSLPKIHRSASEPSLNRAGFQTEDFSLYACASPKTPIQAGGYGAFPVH
Hi! Could you send only the number? It should be in %, unit omitted.

**Query** inhibition at 1 µM lookup needed for "COc1cc2nccc(Oc3ccc(NC(=O)C4(NC(=O)c5ccc(F)cc5)CC4)cc3F)c2cc1Oc1ccc(N)cc1F" , thanks.
**Result** 2

**Query** Fill in: inhibition at 1 µM of "COc1cc2nccc(Oc3ccc(NC(=O)C4(NC(=O)c5ccc(F)cc5)CC4)cc3F)c2cc1Oc1c(F)cc(N)cc1F" is ___
**Result** -3

**Query** Quick one: inhibition at 1 µM of "COc1cc2nccc(Oc3ccc(NC(=O)C4(C(=O)Nc5ccc(F)cc5)CC4)cc3F)c2cc1Oc1ccc(N)cc1F" ?
**Result** 5

**Query** Entry "COc1cc2nccc(Oc3ccc(NC(=O)C4(NC(=O)c5ccc(F)cc5)CC4)cc3F)c2cc1OC" has what inhibition at 1 µM?
**Result** 1

**Query** Endpoint output: inhibition at 1 µM of COc1cc2nccc(Oc3ccc(NC(=O)C4(C(=O)Nc5ccc(F)cc5)CC4)cc3)c2cc1OC [Cabozantinib, reference compound] . Value?
**Result** 24

====

READOUT TYPE: IC50 (µM)
Kindly answer with a numeric value in µM, unit omitted.

**Query** Given the entry CNC(=O)c1cc2c(Oc3ccc(NC(=O)C4(C(=O)Nc5ccc(F)cc5)CC4)cc3)ccnc2cc1OC [Zanzalintinib, reference compound] , what IC50 was observed with LYN A (Homo sapiens, UniProt P07948)?
**Result** 0.0709

**Query** What is its IC50 for LYN A (Homo sapiens, UniProt P07948)? Entry: "COc1cc2nccc(Oc3ccc(NC(=O)C4(C(=O)Nc5ccc(F)cc5)CC4)cc3F)c2cc1Oc1ccc(N)cc1F"
**Result** 0.0531

**Query** So what IC50 did COc1cc2nccc(Oc3ccc(NC(=O)C4(C(=O)Nc5ccc(F)cc5)CC4)cc3)c2cc1OC [Cabozantinib, reference compound] get with LYN A (Homo sapiens, UniProt P07948)?
**Result** 0.217

====

Consider the following compounds; for each one, report its inhibition at 1 µM.
target: FGFR4 (Homo sapiens, UniProt P22455); experiment: Tyrosine kinase inhibition assay; assay type: biochemical; conditions: single concentration 1.0 μM, read-out: percent inhibition
Sequence (P22455 22-802): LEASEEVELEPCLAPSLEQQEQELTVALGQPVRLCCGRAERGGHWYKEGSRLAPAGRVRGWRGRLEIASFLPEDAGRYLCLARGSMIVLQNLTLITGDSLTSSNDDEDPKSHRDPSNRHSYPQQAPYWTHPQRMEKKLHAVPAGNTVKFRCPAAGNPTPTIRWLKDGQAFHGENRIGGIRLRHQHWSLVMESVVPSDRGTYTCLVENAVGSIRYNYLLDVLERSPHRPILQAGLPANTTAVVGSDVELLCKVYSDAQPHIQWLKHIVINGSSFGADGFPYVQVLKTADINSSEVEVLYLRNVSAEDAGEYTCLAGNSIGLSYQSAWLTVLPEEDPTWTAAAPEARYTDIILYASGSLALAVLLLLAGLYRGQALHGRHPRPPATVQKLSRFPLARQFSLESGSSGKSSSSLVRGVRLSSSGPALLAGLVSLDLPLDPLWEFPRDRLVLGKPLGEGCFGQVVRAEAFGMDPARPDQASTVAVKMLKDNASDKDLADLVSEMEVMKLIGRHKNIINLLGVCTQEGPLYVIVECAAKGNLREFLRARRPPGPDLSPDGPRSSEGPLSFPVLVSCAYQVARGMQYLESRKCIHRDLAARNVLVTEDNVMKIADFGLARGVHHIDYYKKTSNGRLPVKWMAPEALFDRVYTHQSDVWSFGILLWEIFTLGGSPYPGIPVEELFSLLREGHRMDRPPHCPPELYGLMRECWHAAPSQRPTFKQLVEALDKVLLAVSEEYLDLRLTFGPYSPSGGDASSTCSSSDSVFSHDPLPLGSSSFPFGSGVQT
Report only the number, with the unit % understood.

**Query** # query: inhibition at 1 µM | item COc1cc2nccc(Oc3ccc(NC(=O)C4(NC(=O)c5ccc(F)cc5)CC4)cc3F)c2cc1OC [Cbo-02] | system: FGFR4 (Homo sapiens, UniProt P22455)
**Result** 0

**Query** Enter reported inhibition at 1 µM observed with FGFR4 (Homo sapiens, UniProt P22455) for COc1cc2nccc(Oc3ccc(NC(=O)C4(C(=O)Nc5ccc(F)cc5)CC4)cc3)c2cc1OC [Cabozantinib, reference compound]
**Result** -2

**Query** Quick check: inhibition at 1 µM on FGFR4 (Homo sapiens, UniProt P22455), item COc1cc2nccc(Oc3ccc(NC(=O)C4(C(=O)Nc5ccc(F)cc5)CC4)cc3F)c2cc1Oc1ccc(N)cc1F [Cbo-23] ?
**Result** 13

**Query** Fill in the recorded inhibition at 1 µM for this compound, with FGFR4 (Homo sapiens, UniProt P22455) as test system: COc1cc2nccc(Oc3ccc(NC(=O)C4(NC(=O)c5ccc(F)cc5)CC4)cc3F)c2cc1Oc1ccc(N)cc1F [Cbo-10]
**Result** 1

**Query** // map COc1cc2nccc(Oc3ccc(NC(=O)C4(NC(=O)c5ccc(F)cc5)CC4)cc3F)c2cc1Oc1c(F)cc(N)cc1F [Cbo-14] to recorded inhibition at 1 µM (system: FGFR4 (Homo sapiens, UniProt P22455))
**Result** -1
